- Tested On: TNKS2 (Homo sapiens (Human), UniProt Q9H2K2)
- Assay Explanation: biochemical
- Type: biochemical
- Cond: GST-tagged Tnks-2 (873-1166 aa); read-out: IC50 [M] TNKS2 ELISA
Please provide measured IC50 for the entries that follow.
Record the value in M, omitting the unit from your answer.

Enquiry: Form field: reported IC50 of COC(=O)c1cccc(C(=O)C2CCN(C(=O)CC(C)(C)Cc3nc4c(C)cccc4c(=O)[nH]3)CC2)c1 [Compound C36]
Return: 2.1e-09

Enquiry: Form field: reported IC50 of Cn1cc(C(=O)C2CCN(C(=O)CC(C)(C)Cc3cc4ccccc4c(=O)[nH]3)CC2)cn1 [Compound C49]
Return: 2.1e-10

Enquiry: Form field: reported IC50 of Cc1cc(C(=O)C2CCN(C(=O)CC(C)(C)Cc3nc4ccccc4c(=O)[nH]3)CC2)ccc1C(=O)O [Compound C39]
Return: 6.1e-10

Enquiry: Form field: reported IC50 of COc1ccc(C(=O)C2CCN(C(=O)COCc3nc4c(F)cc(F)cc4c(=O)[nH]3)CC2)cn1 [Compound C28]
Return: 1.2e-08

Enquiry: Form field: reported IC50 of CC(C)(CC(=O)N1CCC(C(=O)c2ccc(C(=O)O)cc2)CC1)Cc1cc2ccccc2c(=O)[nH]1 [Compound C52]
Return: 2.5e-10

Enquiry: Form field: reported IC50 of COc1ccc(C(=O)C2CCN(C(=O)N(C)CCc3nc4ccccc4c(=O)[nH]3)CC2)cc1 [Compound C30]
Return: 5.7e-10

Enquiry: Form field: reported IC50 of C[C@@H](CC(=O)N1CCC(C(=O)c2cnn(C)c2)CC1)Cc1cc2ccccc2c(=O)[nH]1 [Compound C51]
Return: 7.2e-10

###

Please provide measured IC50 for the entries that follow.
- Tested On: TNKS2 (Homo sapiens (Human))
- Assay Explanation: biochemical
- Format: biochemical
- Cond: GST-tagged Tnks-2 (873-1166 aa); read-out: IC50 [M] TNKS2 ELISA
Record the value in M, omitting the unit from your answer.

Enquiry: Form field: reported IC50 of COc1ncc(C(=O)C2CCN(C(=O)CC(C)(C)Cc3nc4c(cnn4C)c(=O)[nH]3)CC2)cc1C
Return: 1.8e-09

Enquiry: Form field: reported IC50 of CN(CCc1nc2ccccc2c(=O)[nH]1)C(=O)N1CCC(C(=O)c2cnn(C)c2)CC1
Return: 2.2e-09

Enquiry: Form field: reported IC50 of COc1ccc(C(=O)C2CCN(C(=O)CC(C)(C)Cc3nc4c(ccn4C)c(=O)[nH]3)CC2)cn1
Return: 4.1e-10

Enquiry: Form field: reported IC50 of COC(=O)c1ccc(C(=O)C2CCN(C(=O)CC(C)(C)Cc3nc4c(C)cccc4c(=O)[nH]3)CC2)cc1C
Return: 4.7e-09

Enquiry: Form field: reported IC50 of Cc1cc(F)cc2c(=O)[nH]c(C[C@H](C)CC(=O)N3CCC(C(=O)c4cccc(C(=O)O)c4)CC3)nc12
Return: 2.2e-10

Enquiry: Form field: reported IC50 of CN(C)Cc1ccc(C(=O)C2CCN(C(=O)CC(C)(C)Cc3nc4ccccc4c(=O)[nH]3)CC2)cc1
Return: 5.3e-09

Enquiry: Form field: reported IC50 of COc1ccc(C(=O)C2CCN(C(=O)CCC(C)(C)c3nc4ccccc4c(=O)[nH]3)CC2)cc1
Return: 5e-09

Enquiry: Form field: reported IC50 of COC(=O)c1ccc(C(=O)C2CCN(C(=O)CC(C)(C)Cc3nc4ccccc4c(=O)[nH]3)CC2)cc1C
Return: 3.2e-10

Enquiry: Form field: reported IC50 of CCn1cc(C(=O)C2CCN(C(=O)CC(C)(C)Cc3nc4c(ccn4C)c(=O)[nH]3)CC2)cn1
Return: 3.6e-10

Enquiry: Form field: reported IC50 of Cn1cc(C(=O)C2CCN(C(=O)CC(C)(C)Cc3nc4c(cnn4C)c(=O)[nH]3)CC2)cn1
Return: 7.3e-10

Enquiry: Form field: reported IC50 of COC(=O)c1ccc(C(=O)C2CCN(C(=O)CC(C)(C)Cc3nc4ccccc4c(=O)[nH]3)CC2)cc1
Return: 5.6e-10

Enquiry: Form field: reported IC50 of Cn1cc(C(=O)C2CCN(C(=O)CC(C)(C)Cc3nc4c(ccn4C)c(=O)[nH]3)CC2)cn1
Return: 3.3e-10

Enquiry: Form field: reported IC50 of Cn1cc(C(=O)C2CCN(C(=O)CC3(Cc4nc5ccccc5c(=O)[nH]4)CC3)CC2)cn1
Return: 1e-09

Enquiry: Form field: reported IC50 of CC(C)(CC(=O)N1CCC(C(=O)c2cccc(C(=O)O)c2)CC1)Cc1cc2ccccc2c(=O)[nH]1
Return: 6.9e-10

Enquiry: Form field: reported IC50 of COc1ccc(C(=O)C2CCN(C(=O)NCCc3nc4ccccc4c(=O)[nH]3)CC2)cc1
Return: 8.4e-10

###

- Tested On: UniProt:Q9H2K2
- Assay Explanation: biochemical
- Format: biochemical
- Cond: GST-tagged Tnks-2 (873-1166 aa); read-out: IC50 [M] TNKS2 ELISA
Experimental Readout: IC50 (M)
Record the value in M, omitting the unit from your answer.

Enquiry: Form field: reported IC50 of C[C@H](CC(=O)N1CCC(C(=O)c2cnn(C)c2)CC1)Cc1cc2ccccc2c(=O)[nH]1 [Compound C50]
Return: 2.4e-10

Enquiry: Form field: reported IC50 of Cn1cc(C(=O)C2CCN(C(=O)CC(C)(C)Cc3nc4ccccc4c(=O)[nH]3)CC2)cn1 [Compound C1]
Return: 3.7e-10

Enquiry: Form field: reported IC50 of Cn1cc(C(=O)C2CCN(C(=O)C(C)(C)CCc3nc4ccccc4c(=O)[nH]3)CC2)cn1 [Compound C13]
Return: 4.2e-07

Enquiry: Form field: reported IC50 of Cc1cc(C(=O)C2CCN(C(=O)CC(C)(C)Cc3nc4c(C)cccc4c(=O)[nH]3)CC2)ccc1C(=O)O [Compound C41]
Return: 8.8e-10

Enquiry: Form field: reported IC50 of Cn1cc(C(=O)C2CCN(C(=O)CCC(C)(C)c3nc4ccccc4c(=O)[nH]3)CC2)cn1 [Compound C14]
Return: 4.4e-08

Enquiry: Form field: reported IC50 of CC(C)n1cc(C(=O)C2CCN(C(=O)CC(C)(C)Cc3nc4c(ccn4C)c(=O)[nH]3)CC2)cn1 [Compound C19]
Return: 5.8e-10

Enquiry: Form field: reported IC50 of COc1ccc(C(=O)C2CCN(C(=O)COCc3nc4ccccc4c(=O)[nH]3)CC2)cn1 [Compound C25]
Return: 1.2e-08

###

Please provide measured IC50 for the entries that follow.
- Tested On: TNKS1 (Homo sapiens (Human), UniProt O95271)
- Assay Explanation: biochemical
- Type: biochemical
- Cond: GST-tagged Tnks-1 (1023-1327 aa); read-out: IC50 [M] TNKS1 ELISA
Record the value in M, omitting the unit from your answer.

Enquiry: Form field: reported IC50 of Cn1cc(C(=O)C2CCN(C(=O)CC(C)(C)Cc3nc4c(ccn4C)c(=O)[nH]3)CC2)cn1
Return: 4.7e-10

Enquiry: Form field: reported IC50 of COc1ccc(C(=O)C2CCN(C(=O)COCc3nc4c(F)cc(F)cc4c(=O)[nH]3)CC2)cn1
Return: 3.4e-08

Enquiry: Form field: reported IC50 of Cc1cc(F)cc2c(=O)[nH]c(C[C@@H](C)CC(=O)N3CCC(C(=O)c4cccc(C(=O)O)c4)CC3)nc12
Return: 8.2e-09

Enquiry: Form field: reported IC50 of C[C@H](CC(=O)N1CCC(C(=O)c2cnn(C)c2)CC1)Cc1cc2ccccc2c(=O)[nH]1
Return: 4.4e-10

Enquiry: Form field: reported IC50 of Cc1cc(C(=O)C2CCN(C(=O)CC(C)(C)Cc3nc4ccccc4c(=O)[nH]3)CC2)ccc1C(=O)O
Return: 4.3e-10

Enquiry: Form field: reported IC50 of COc1ccc(C(=O)C2CCN(C(=O)CC(C)(C)Cc3nc4c(cnn4C)c(=O)[nH]3)CC2)cn1
Return: 3.6e-09

Enquiry: Form field: reported IC50 of CC(C)(CC(=O)N1CCC(C(=O)c2ccc(C(=O)O)cc2)CC1)Cc1cc2ccccc2c(=O)[nH]1
Return: 3.3e-10

###

- Tested On: TNKS1 (Homo sapiens (Human), UniProt O95271)
- Assay Explanation: biochemical
- Format: biochemical
- Cond: GST-tagged Tnks-1 (1023-1327 aa); read-out: IC50 [M] TNKS1 ELISA
Experimental Readout: IC50 (M)
Record the value in M, omitting the unit from your answer.

Enquiry: Form field: reported IC50 of Cn1cc(C(=O)C2CCN(C(=O)CC(C)(C)Cc3cc4ccccc4c(=O)[nH]3)CC2)cn1
Return: 3e-10

Enquiry: Form field: reported IC50 of COC(=O)c1cccc(C(=O)C2CCN(C(=O)CC(C)(C)Cc3nc4ccccc4c(=O)[nH]3)CC2)c1
Return: 4.8e-10

Enquiry: Form field: reported IC50 of COc1ccc(C(=O)C2CCN(C(=O)N(C)CCc3nc4ccccc4c(=O)[nH]3)CC2)cc1
Return: 6.2e-10

Enquiry: Form field: reported IC50 of COc1ccc(C(=O)C2CCN(C(=O)COCc3nc4ccccc4c(=O)[nH]3)CC2)cn1
Return: 3.6e-08

Enquiry: Form field: reported IC50 of COc1ccc(C(=O)C2CCN(C(=O)COCc3nc4c(F)cc(F)cc4c(=O)[nH]3)CC2)cc1
Return: 7.7e-09

Enquiry: Form field: reported IC50 of Cc1cc(C(=O)C2CCN(C(=O)CC(C)(C)Cc3nc4c(C)cccc4c(=O)[nH]3)CC2)ccc1C(=O)O
Return: 5.9e-10

Enquiry: Form field: reported IC50 of COc1ccc(C(=O)C2CCN(C(=O)CC(C)(C)Cc3nc4c(ccn4C)c(=O)[nH]3)CC2)cn1
Return: 6.1e-10

Enquiry: Form field: reported IC50 of CC(C)(CC(=O)N1CCC(C(=O)c2cccc(C(=O)O)c2)CC1)Cc1cc2ccccc2c(=O)[nH]1
Return: 1.1e-09

Enquiry: Form field: reported IC50 of CCn1cc(C(=O)C2CCN(C(=O)CC(C)(C)Cc3nc4c(ccn4C)c(=O)[nH]3)CC2)cn1
Return: 5.8e-10

Enquiry: Form field: reported IC50 of COc1ccc(C(=O)C2CCN(C(=O)COCc3nc4ccccc4c(=O)[nH]3)CC2)cc1
Return: 6.3e-09

Enquiry: Form field: reported IC50 of COc1ccc(C(=O)C2CCN(C(=O)CCC(C)(C)c3nc4ccccc4c(=O)[nH]3)CC2)cc1
Return: 9.2e-09

Enquiry: Form field: reported IC50 of COc1ncc(C(=O)C2CCN(C(=O)CC(C)(C)Cc3nc4c(cnn4C)c(=O)[nH]3)CC2)cc1C
Return: 2.2e-09

Enquiry: Form field: reported IC50 of Cc1cc(F)cc2c(=O)[nH]c(C[C@H](C)CC(=O)N3CCC(C(=O)c4cccc(C(=O)O)c4)CC3)nc12
Return: 3.5e-10

Enquiry: Form field: reported IC50 of COC(=O)c1ccc(C(=O)C2CCN(C(=O)CC(C)(C)Cc3nc4c(C)cccc4c(=O)[nH]3)CC2)cc1C
Return: 1.5e-09

Where do the numbers come from? From patent US10570116B2.
